System: MCF-7 (human breast cancer)
protocol details: MTT cytotoxicity assay, MCF-7
Type: cell-based
test settings: MCF7, means of three experiments, 24 hr, read-out: IC50 MCF-7 (anti-proliferative activity)
measured quantity: IC50
# number then unit; no other words

[[record]]
compound = "CSc1ncc(C2SCC(=O)N2c2ccc(Cl)cc2)n1Cc1ccccc1 (stereo not drawn) [2a]"
test_value = "121 µM"

[[record]]
compound = "CCSc1ncc(C2SCC(=O)N2c2ccc(Cl)cc2)n1Cc1ccccc1 (stereo not drawn) [2b]"
test_value = "110 µM"


Can you look up the measured IC50 of Cc1ccc(-c2cc(C(F)(F)F)nn2-c2ccc(S(N)(=O)=O)cc2)cc1 [Celecoxib, celecoxib, reference compound] for me?
76.3 µM

====

measurement target: ovine COX-2 (Ovis aries, UniProt P79208)
Construct: purchased Cayman Chemical Company 760111
Sequence (P79208 17-603): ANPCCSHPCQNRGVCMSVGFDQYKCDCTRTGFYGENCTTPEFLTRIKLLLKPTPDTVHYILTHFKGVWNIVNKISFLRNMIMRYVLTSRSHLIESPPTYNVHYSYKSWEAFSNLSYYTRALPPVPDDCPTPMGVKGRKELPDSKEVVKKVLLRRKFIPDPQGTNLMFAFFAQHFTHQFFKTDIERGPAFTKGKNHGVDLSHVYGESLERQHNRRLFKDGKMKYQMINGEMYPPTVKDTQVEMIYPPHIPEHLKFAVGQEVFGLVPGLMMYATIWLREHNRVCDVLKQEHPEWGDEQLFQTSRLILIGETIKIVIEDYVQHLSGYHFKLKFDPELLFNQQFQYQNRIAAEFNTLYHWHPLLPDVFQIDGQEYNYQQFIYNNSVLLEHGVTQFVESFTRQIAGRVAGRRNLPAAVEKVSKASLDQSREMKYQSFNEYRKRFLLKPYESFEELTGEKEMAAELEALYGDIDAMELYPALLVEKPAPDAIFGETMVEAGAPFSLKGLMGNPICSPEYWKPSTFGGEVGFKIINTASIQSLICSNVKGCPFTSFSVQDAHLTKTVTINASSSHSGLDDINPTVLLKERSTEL
protocol details: biochemical
test settings: mean of two determinations
measured quantity: IC50 (µM)
Dear colleague, please return just the value in µM, with no unit written.

Which IC50 value is on record for CSc1ncc(C2SCC(=O)N2c2ccc(Cl)cc2)n1Cc1ccccc1 (stereo not shown) [2a] ?
0.82

====

measurement target: ovine COX-1 (Ovis aries)
Sequence (P05979 25-600): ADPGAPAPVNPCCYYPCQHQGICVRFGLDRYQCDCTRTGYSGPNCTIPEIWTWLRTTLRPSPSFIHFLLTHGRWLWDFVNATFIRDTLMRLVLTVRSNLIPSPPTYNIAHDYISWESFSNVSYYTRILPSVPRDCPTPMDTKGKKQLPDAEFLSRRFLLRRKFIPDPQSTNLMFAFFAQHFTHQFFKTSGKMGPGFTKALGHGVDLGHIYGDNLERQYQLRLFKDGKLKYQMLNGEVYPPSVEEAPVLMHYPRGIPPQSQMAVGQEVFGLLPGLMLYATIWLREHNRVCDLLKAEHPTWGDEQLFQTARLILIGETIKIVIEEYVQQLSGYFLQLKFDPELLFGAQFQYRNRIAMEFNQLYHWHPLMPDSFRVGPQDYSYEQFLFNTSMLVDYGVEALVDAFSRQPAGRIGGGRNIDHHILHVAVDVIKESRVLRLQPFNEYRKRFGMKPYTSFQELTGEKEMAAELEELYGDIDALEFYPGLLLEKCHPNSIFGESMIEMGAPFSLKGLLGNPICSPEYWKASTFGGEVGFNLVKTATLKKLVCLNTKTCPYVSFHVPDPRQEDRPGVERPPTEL
measured quantity: IC50 (µM)
Write the value in µM as a bare number.

Query IC50 on ovine COX-1 (Ovis aries) for CSc1ncc(C2SCC(=O)N2c2ccc(Cl)cc2)n1Cc1ccccc1 (stereo not shown)
15.6
